Organism: Rattus norvegicus
Test: Open TG-GATES - Regimen: Single
Assay type: toxicity, organism-based, Sprague-Dawley
Design: regimen Single, gender Male, age 6 weeks
Details: in vivo, po, 1000 mg/kg, 24 h, tissue Plasma, route gavage, dose level High
Hi! Could you tag entries with RALB below 3 g/dL as class 1, and those at or above as class 0? Much appreciated.

chemical_string=O=C(OC[C@H]1O[C@@H](OC(=O)c2cc(O)c(O)c(OC(=O)c3cc(O)c(O)c(O)c3)c2)[C@H](OC(=O)c2cc(O)c(O)c(OC(=O)c3cc(O)c(O)c(O)c3)c2)[C@@H](OC(=O)c2cc(O)c(O)c(OC(=O)c3cc(O)c(O)c(O)c3)c2)[C@@H]1OC(=O)c1cc(O)c(O)c(OC(=O)c2cc(O)c(O)c(O)c2)c1)c1cc(O)c(O)c(OC(=O)c2cc(O)c(O)c(O)c2)c1 classification="class 0"
chemical_string=CNC(=C[N+](=O)[O-])NCCSCc1ccc(CN(C)C)o1 classification="class 0"
chemical_string=CN/C(=N/CCSCc1nc[nH]c1C)NC#N classification="class 0"
chemical_string=COC(=O)C1=C(C)NC(C)=C(C(=O)OC)C1c1ccccc1[N+](=O)[O-] classification="class 1"
chemical_string=Cc1nnc2n1-c1ccc(Cl)cc1C(c1ccccc1Cl)=NC2 classification="class 1"

Origin of measurements: ChEMBL document CHEMBL3885861
